tested on: DU-145 prostate; assay: NCI tumour cell line growth inhibition, 48 h
Here, each record is paired with measured TGI data.

Here's what some known entries look like.
{"compound": "CCCCCCNC(=S)N/N=C(\\C)c1ccccn1", "experimental_result": "30.4 µM"}
{"compound": "COc1cccc(C=C2N=C(c3ccccc3)N(n3c(-c4ccccc4)nc4ccccc4c3=O)C2=O)c1", "experimental_result": "> 100 µM"}
{"compound": "NS(=O)(=O)c1nnc(NC(=O)c2cccc([N+](=O)[O-])c2)s1", "experimental_result": "> 100 µM"}
{"compound": "COc1ccccc1/C=C/C1=C(C)CCC(c2ccccc2OC)C1C (stereo unspecified)", "experimental_result": "0.868 µM"}
{"compound": "CN(C)Cc1ccc(C(C)(C)C)cc1-c1cc(C(C)(C)C)ccc1CN(C)C", "experimental_result": "> 100 µM"}

The compound listed as Nc1ncnc2c1ncn2-c1ccc([N+](=O)[O-])cn1 has a reported TGI of > 100 µM

The compound listed as COc1ccc(-c2nn(-c3ccc(NC(=O)c4cc(Cl)cc(Cl)c4)cc3)cc2-c2ccncc2)cc1Cl has a reported TGI of > 100 µM

The compound listed as CCOC(=O)/C(C#N)=C1\SS/C(=C(/C#N)C(=O)OCC)S1 has a reported TGI of 33.6 µM

The compound listed as O=C(/C=C1\N=C(c2ccccc2)N(c2nc3c(Cl)cc(Cl)cc3s2)C1=O)/C=C/c1ccccc1 has a reported TGI of > 100 µM

The compound listed as OCc1ccc(N2CCc3cc(F)ccc3C2)cc1Cl has a reported TGI of 20.6 µM

The compound listed as C=C1C(=O)O[C@H]2[C@H]1CC/C(Cn1cc(-c3cccc(Cl)c3)nn1)=C\CC[C@@]1(C)O[C@@H]21 has a reported TGI of 2.16 µM

* * *

system: NCI-H226 lung; test: NCI tumour cell line growth inhibition, 48 h
Here, each record is paired with measured TGI data.

{"compound": "CC1CCC(=O)C(C(O)CC2CC(=O)N(c3ccccc3)C(=O)C2)C1 (stereo unspecified)", "TGI": "> 100 µM"}

The compound listed as COc1ccc2nc(-c3ccccc3)cc(Nc3cccc(C(C)=O)c3)c2c1 has a reported TGI of 34.3 µM

The compound listed as COc1ccccc1-n1c(N)c2c(C)c(-c3ccccc3)[nH]c2nc1=S has a reported TGI of > 100 µM

The compound listed as CCCCNC(=NCc1ccccc1)NC#N has a reported TGI of > 100 µM

The compound listed as CN(C)C(=O)NC(=S)N(C)C has a reported TGI of > 100 µM

The compound listed as COc1cccc(/C=N/[N-]C(N)=O)c1[O-].[Ni+2].[OH3+] has a reported TGI of 2.11 µM

* * *

Here, each record is paired with measured GI50 data.
test system: MOLT-4 leukemia; assay: NCI tumour cell line growth inhibition, 48 h

Here's what some known entries look like.
{"smiles_data": "COc1ccc(-c2nn(-c3ccc(NC(=O)c4cc(Cl)cc(Cl)c4)cc3)cc2-c2ccncc2)cc1Cl", "experimental_result": "2830 nM"}
{"smiles_data": "Cc1ccc(/C=C/c2c(C(=O)/C=C/c3ccc(Cl)cc3)c(C)nc3ccccc23)cc1", "experimental_result": "2180 nM"}
{"smiles_data": "Cc1ccc(Cl)cc1NC(=O)c1cc2ccccc2cc1O", "experimental_result": "558 nM"}
{"smiles_data": "C[C@@H](NC(=O)c1ncnc(N)c1Cl)c1ncc(C(=O)Nc2cc(C(F)(F)F)c(Cl)cn2)s1", "experimental_result": "23000 nM"}
{"smiles_data": "C/C(=N/O)c1ccc2c(c1)/C(=N/O)c1ccccc1-2", "experimental_result": "20200 nM"}

The compound listed as Cc1ccc(-c2nc3cc(Cl)c(Cl)cc3nc2C#N)cc1 has a reported GI50 of > 100000 nM

The compound listed as Cc1ccc(-c2nc(N3CCNCC3)c3oc(-c4ccccc4)nc3n2)cc1 has a reported GI50 of 1910 nM

The compound listed as COc1ccc2nc(-c3ccccc3)cc(Nc3cccc(C(C)=O)c3)c2c1 has a reported GI50 of 7570 nM

The compound listed as CCCCN=C(N)c1ccc(N2CCCN(c3ccc(C(N)=NCCCC)cc3)CC2)cc1 has a reported GI50 of 25200 nM

The compound listed as Nc1nnnc2nc[nH]c12 has a reported GI50 of 2620 nM

Data origin, for the record: PubChem BioAssay (NCI)
